test: solubility; assay type: physicochemical; conditions: at 25° C. and ionic strength 0.15 M; read-out: solubility (S)
reported property: solubility (mg/mL)

chemical structure: CCOC(=O)c1cc2c(s1)-c1cc(Cl)cc(OCCCN(C)C)c1Oc1ccccc1-2.O=C(O)CC(O)(CC(=O)O)C(=O)O
reported property: solubility
recorded number: 167

###

assay: pKa; format: physicochemical

molecule: CCOC(=O)c1cc2c(s1)-c1cc(Cl)cc(OCCCN(C)C)c1Oc1ccccc1-2.O=C(O)CC(O)(CC(=O)O)C(=O)O [Example 2, citrate salt]
pKa: 6.9
